The reported measurements were obtained from ChEMBL document CHEMBL1201862.

# Test system: SN12K1
# Protocol: cells
# Assay type: functional
# Measurement Parameters: Homo sapiens
Calls of active or inactive are those of the source.
Hi there, I'd appreciate the recorded GI50 for every entry that follows.

Q. Need GI50 of c1ccc2c3c(ccc2c1)-c1[nH]ncc1CCO3 , thanks.
A. 22.4 µM (inactive)

Q. GI50 for O=C1C(Br)=CC2([N+](=O)[O-])CCNC3=C(C4=NCCc5c[nH]c(c54)C3=O)C2=C1Br (stereo not given) ?
A. 3.3 µM (inactive)

Q. // lookup GI50 for COC(=O)c1cccc(N[C@@H]2c3cc4c(cc3C(c3cc(OC)c(O)c(OC)c3)[C@H]3C(=O)OCC32)OCO4)c1 (stereo not given in full)
A. 0.23 µM (active)

Q. Consider the molecule Cc1nc2ccccc2c(=O)n1Nc1ccc(C(=O)O)cc1 and give its measured GI50.
A. > 100 µM (inactive)

Q. Fill in the blank: the reported GI50 of C=C1C(C)C2C(Cc3ccccc3)NC(=O)C23C(OC(C)=O)C=CC(C)(O)C(=O)C(C)C/C=C/C3C1O (stereo not given) is ____.
A. 0.0619 µM (active)

* * *

Give IC50 for every item shown.
# Test system: Vero
# Protocol: cells
# Assay type: functional, cell-based
# Measurement Parameters: Chlorocebus sabaeus
Active and inactive are the calls of the source.

Q. // lookup IC50 for COc1ccc(C(=O)NNC(=S)NC(=O)/C=C/c2cccs2)cc1
A. > 25 µM (active)

Q. # IC50 lookup, item Cc1ccc(CSCC(=O)Nc2ccccc2C(=O)O)cc1
A. 12.2 µM (active)

Q. Name the recorded IC50 for Clc1ccc2nnnc(-c3ccccc3)c2c1 .
A. 9.71 µM (active)

Q. Look at this compound and give its reported IC50. CCC1CSC(Nc2ccc(C(=O)/C=C/c3ccc(OC)c(OC)c3)cc2)=N1 (centres undefined)
A. 23.5 µM (active)

* * *

# Tested System: UniProtKB P03070
# Sequence (P03070 whole entry): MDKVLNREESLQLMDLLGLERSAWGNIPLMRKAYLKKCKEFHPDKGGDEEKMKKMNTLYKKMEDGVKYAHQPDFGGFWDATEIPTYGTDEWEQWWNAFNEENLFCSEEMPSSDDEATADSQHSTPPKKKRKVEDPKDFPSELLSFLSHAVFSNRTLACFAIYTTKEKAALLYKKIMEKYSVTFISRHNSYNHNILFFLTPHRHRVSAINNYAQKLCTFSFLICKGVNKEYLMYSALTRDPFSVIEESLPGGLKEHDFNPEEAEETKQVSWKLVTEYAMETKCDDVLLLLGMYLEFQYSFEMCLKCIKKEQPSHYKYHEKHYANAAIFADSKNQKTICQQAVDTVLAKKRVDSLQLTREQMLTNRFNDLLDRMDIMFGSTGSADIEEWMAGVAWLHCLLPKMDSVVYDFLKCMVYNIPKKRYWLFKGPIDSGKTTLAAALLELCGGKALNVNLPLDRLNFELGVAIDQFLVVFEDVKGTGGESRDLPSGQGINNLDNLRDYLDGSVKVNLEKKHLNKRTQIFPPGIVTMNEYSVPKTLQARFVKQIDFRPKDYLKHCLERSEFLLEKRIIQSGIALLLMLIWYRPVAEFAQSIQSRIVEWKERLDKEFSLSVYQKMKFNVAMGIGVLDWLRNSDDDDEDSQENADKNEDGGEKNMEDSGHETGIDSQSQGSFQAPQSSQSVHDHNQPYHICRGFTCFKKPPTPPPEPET
# Format: functional, Betapolyomavirus macacae
Active and inactive are the calls of the source.
What IC50 was measured for each of the following?

Q. Looking for the measured IC50 of Cc1cc(-c2nnc(S)n2/N=C/c2c[nH]c3ccccc23)[nH]n1 , can you help?
A. 64 µM (active)

Q. Reported IC50 for Cc1cc(O)ccc1N/C=C1\CCCC1=O : what is it?
A. 29.8 µM (active)

Q. So what does the record say about IC50 for N/C(=N\N=C\c1ccc(O)c(O)c1)c1nonc1N ?
A. 23.4 µM (active)

Q. Could you tell me which IC50 is on file for O=c1c2ccccc2[nH]c2ccc(O)cc12 ?
A. 9.16 µM (active)

Q. What does the record list as IC50 for COc1cc([N+](=O)[O-])ccc1NC(=O)Oc1ccc(NC(C)=O)cc1 ?
A. 8.79 µM (active)

Q. Reported IC50, molecule Cc1c(Br)c(=O)oc2c(Br)c(O)c(O)cc12 : ____
A. 41.2 µM (active)

* * *

# Tested System: Cytochrome P450 3A4 (Homo sapiens, UniProt P08684);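 note: confirmatory qHTS run detecting inhibitors and substrates of CYP3A4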
# Sequence (P08684 whole entry): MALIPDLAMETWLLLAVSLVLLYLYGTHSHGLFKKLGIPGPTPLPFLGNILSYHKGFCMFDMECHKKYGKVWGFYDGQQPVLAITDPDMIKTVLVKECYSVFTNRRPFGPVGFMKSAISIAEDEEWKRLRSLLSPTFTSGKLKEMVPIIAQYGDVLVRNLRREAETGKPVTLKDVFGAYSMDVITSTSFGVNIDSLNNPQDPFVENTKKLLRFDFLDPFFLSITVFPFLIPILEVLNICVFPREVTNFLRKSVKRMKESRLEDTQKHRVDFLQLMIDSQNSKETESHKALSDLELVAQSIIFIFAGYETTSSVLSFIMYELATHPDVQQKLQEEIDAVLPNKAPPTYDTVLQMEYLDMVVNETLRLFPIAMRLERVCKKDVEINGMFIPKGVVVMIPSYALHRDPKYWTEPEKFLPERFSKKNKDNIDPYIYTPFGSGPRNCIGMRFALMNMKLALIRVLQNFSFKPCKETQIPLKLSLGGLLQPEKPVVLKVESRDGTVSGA
# Measurement Parameters: Potency
Reported Metric: AC50

Q. Give the measured AC50 of CC1(C)CC23C(=O)CCC(O)C2(C)CCC13 (stereo not given) .
A. 15.8 µM (inconclusive)

Q. Would you kindly share the measured AC50 for CC(C)=CCc1c2c(c(O)c3c(=O)c(O)c(-c4ccccc4)oc13)C=CC(C)(C)O2 ?
A. 15.8 µM (inconclusive)

Q. Name the reported AC50 value associated with the compound CCCCCOC(=O)c1ccccc1C(=O)OCCCCC
A. 12.6 µM (inconclusive)

Q. Fill blank: measured AC50 of the compound Cc1cc([N+](=O)[O-])ccc1N is ____.
A. 39.8 µM (inconclusive)

Q. Looking for the measured AC50 of COC(=O)NC(c1ccccc1)C(C(=O)OC)C(=O)OC (stereo not given) , can you help?
A. 3.16 µM (inconclusive)

* * *

Please go through the items and note down their AC50.
# Tested System: UniProt:P43351
# Sequence (P43351 whole entry): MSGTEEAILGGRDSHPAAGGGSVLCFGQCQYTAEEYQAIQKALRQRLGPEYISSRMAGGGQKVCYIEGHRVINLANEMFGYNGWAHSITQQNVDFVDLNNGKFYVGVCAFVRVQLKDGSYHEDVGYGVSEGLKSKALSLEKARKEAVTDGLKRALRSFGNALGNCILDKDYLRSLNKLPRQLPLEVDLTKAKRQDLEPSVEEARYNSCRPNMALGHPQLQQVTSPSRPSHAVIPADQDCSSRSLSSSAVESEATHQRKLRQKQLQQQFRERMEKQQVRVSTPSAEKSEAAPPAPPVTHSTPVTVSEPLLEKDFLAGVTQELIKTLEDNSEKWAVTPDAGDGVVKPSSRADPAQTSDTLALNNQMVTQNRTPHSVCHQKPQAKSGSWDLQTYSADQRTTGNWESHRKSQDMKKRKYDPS
# Format: functional, biochemical
Activity calls are given as the source filed them.

Q. So what AC50 did COc1cc2c3cc1Oc1cc(ccc1O)C[C@@H]1c4c(cc(OC)c(O)c4Oc4cccc(c4)C[C@@H]3N(C)CC2)CC[N+]1(C)C get with UniProt:P43351?
A. 8.2 µM (active)

Q. Query AC50 on UniProt:P43351 for CCCCCc1ccc(OCCCC[n+]2cccc(C)c2)c(CCCCC)c1
A. 15.1 µM (active)

Q. Can you look up AC50 on UniProt:P43351 for O=C1c2ccccc2C(=O)c2c(NCCCN(CCO)CCO)cccc21 ?
A. 0.977 µM (active)

Q. # value lookup — system UniProt:P43351, readout AC50, item CN(C)CCNc1ncnc2c1sc1nc(-c3ccccc3)c3c(c12)CCCC3
A. 6.93 µM (active)

Q. Please state recorded AC50 (tested on UniProt:P43351) of CN1CCN(CCCNC(=O)c2ccc(/C=C3\Oc4ccccc4N(Cc4ccc(Cl)cc4)C3=O)cc2)CC1
A. 17.9 µM (active)

Q. Which AC50 is reported with UniProt:P43351 for this entry: CCN(CC)CCN=C(S)Nc1ccc2nc(N3CCN(C)CC3)cc(C)c2c1 ?
A. 5.01 µM (active)

Q. Give the reported AC50 for Cc1cccc(-c2nc3ccc(C(=O)NCCN4CCN(C)CC4)cc3nc2-c2cccc(C)c2)c1 (system: UniProt:P43351).
A. 9.79 µM (active)

* * *

# Tested System: UniProt:P61088
# Sequence (P61088 whole entry): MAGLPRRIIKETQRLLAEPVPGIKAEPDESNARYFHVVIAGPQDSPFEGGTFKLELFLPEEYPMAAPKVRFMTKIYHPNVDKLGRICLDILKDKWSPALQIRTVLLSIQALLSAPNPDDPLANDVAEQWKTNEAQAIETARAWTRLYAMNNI
# Type: functional
Activity calls are given as the source filed them.
Please provide measured IC50 for the entries that follow.

Q. State the recorded IC50 for this entry: CC(=O)Nc1ccc(NC(=O)c2nc(S(=O)(=O)Cc3ccccc3)ncc2Cl)cc1
A. > 20 µM (inactive)

Q. Suppose we examine the compound Cc1cc(C)cc(OCC(=O)NNC(=S)NC(=O)C2CC2)c1 ; what IC50 value has been reported?
A. 7.38 µM (active)

Q. Item under review: CN(C)CCNc1ncnc2c1sc1nc(-c3ccccc3)c3c(c12)CCCC3 . Reported IC50?
A. 7.72 µM (active)

Q. Form field: reported IC50 of CN1CCN(CCCNC(=O)c2ccc(/C=C3\Oc4ccccc4N(Cc4ccc(Cl)cc4)C3=O)cc2)CC1
A. 1.35 µM (active)

* * *

For each entry below, report its AC50 value.
# Tested System: Adenosylmethionine-8-amino-7-oxononanoate aminotransferase (Mycobacterium tuberculosis)
# Sequence (P9WQ81 whole entry): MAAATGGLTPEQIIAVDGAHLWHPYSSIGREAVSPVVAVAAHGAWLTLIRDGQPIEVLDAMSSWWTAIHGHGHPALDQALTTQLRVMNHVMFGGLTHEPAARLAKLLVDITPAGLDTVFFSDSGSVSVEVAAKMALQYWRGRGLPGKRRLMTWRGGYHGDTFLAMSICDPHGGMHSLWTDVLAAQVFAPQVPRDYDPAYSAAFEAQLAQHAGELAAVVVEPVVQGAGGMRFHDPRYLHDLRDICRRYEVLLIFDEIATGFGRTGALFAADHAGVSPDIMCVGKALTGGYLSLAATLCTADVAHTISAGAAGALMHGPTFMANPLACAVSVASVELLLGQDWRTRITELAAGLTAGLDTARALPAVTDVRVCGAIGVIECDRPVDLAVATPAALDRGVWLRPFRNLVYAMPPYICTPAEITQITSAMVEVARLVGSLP
# Protocol: Mycobacterium tuberculosis BioA enzyme inhibitor Measured in Biochemical System Using Plate Reader - 2163-02_Inhibitor_Dose_CherryPick_Activity.
# Type: functional, Mycobacterium tuberculosis UT205
Active and inactive are the calls of the source.

Q. Lab request: please report AC50 under test system Adenosylmethionine-8-amino-7-oxononanoate aminotransferase (Mycobacterium tuberculosis) for CN(C)C(=O)C[C@@H]1C[C@@H]2c3cc(NC(=O)c4cccnc4)ccc3O[C@@H]2[C@@H](CO)O1
A. 12.7 µM (active)

Q. Form entry - test system: Adenosylmethionine-8-amino-7-oxononanoate aminotransferase (Mycobacterium tuberculosis); read-out: AC50; compound: COc1cc2c3cc1Oc1cc(ccc1O)C[C@@H]1c4c(cc(OC)c(O)c4Oc4cccc(c4)C[C@@H]3N(C)CC2)CC[N+]1(C)C
A. 15.4 µM (active)

Q. Which AC50 is reported with Adenosylmethionine-8-amino-7-oxononanoate aminotransferase (Mycobacterium tuberculosis) for this entry: CCC(=O)N1CC[C@@H]2[C@H]1c1cc(-c3cccc(F)c3)ccc1N(C)[C@H]2CO ?
A. 5.53 µM (active)

Q. Find AC50 (Adenosylmethionine-8-amino-7-oxononanoate aminotransferase (Mycobacterium tuberculosis)) for the entry O=C(Nc1cccnc1)c1ccc(N2CCCC2)c([N+](=O)[O-])c1
A. 1.19 µM (active)

* * *

Answer each item with its documented IC50.
# Tested System: Mannose-6-phosphate isomerase (Homo sapiens)
# Sequence (P34949 whole entry): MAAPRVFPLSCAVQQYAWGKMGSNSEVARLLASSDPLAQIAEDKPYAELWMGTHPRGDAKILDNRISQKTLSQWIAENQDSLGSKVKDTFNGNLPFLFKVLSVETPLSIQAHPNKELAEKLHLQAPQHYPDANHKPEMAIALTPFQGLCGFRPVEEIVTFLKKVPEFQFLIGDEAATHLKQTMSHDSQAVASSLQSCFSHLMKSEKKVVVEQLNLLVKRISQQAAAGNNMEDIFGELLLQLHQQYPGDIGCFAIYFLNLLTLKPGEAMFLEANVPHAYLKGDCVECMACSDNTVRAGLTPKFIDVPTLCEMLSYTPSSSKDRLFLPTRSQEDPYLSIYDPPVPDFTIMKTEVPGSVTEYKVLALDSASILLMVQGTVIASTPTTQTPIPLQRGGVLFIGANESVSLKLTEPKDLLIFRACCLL
# Protocol: inhibitors of human PMI, primary screen, biochemical, fluorescence intensity, coupled assay (AID 1209)
The source made the active and inactive calls.

Q. Need IC50 of C/[N+]([O-])=C\c1ccc2cccc(O)c2n1 , thanks.
A. 16.4 µM (active)

Q. Return reported IC50; argument: Cc1cc(N/N=C/c2ccc(O)cc2O)nc(-n2nc(C)cc2C)n1
A. > 50 µM (not active)

Q. Look up IC50 for this molecule: CC(=O)C1=C(S(=O)(=O)c2ccc(C)cc2)CS(=O)(=O)C1
A. 28.1 µM (active)

Q. Quick one: IC50 of OCCN(CCO)c1ccc2ccccc2c1 ?
A. 21.3 µM (active)

Q. For CC[n+]1c(C)sc2c(C)cc(C)cc21 , what is its reported IC50?
A. 10.8 µM (active)

* * *

# System: H4
# Protocol: Luminescence Cell-Based Dose Response HTS to Identify Activators of 5'UTR Stem-Loop Driven Prion Protein mRNA Translation in H4 Neuroglioblastoma Cells. [Related pubchem assays: 1829 (Project Summary), 1814 (Primary HTS)]
# Type: functional
# Measurement Parameters: Homo sapiens
Calls of active or inactive are those of the source.
Record form. Attribute: EC50. Fill in for each entry.

Q. Tell me the measured EC50 of O=C(O)c1ccc(N/N=C/c2cn(Cc3ccc(F)cc3)c3ccccc23)cc1 , please.
A. > 120 µM (not active)

Q. I am curious: what EC50 value has been reported for CCOC(=O)c1c(CSC(=N)N)n(-c2ccccc2)c2cc(Br)c(OC(C)=O)cc12 ?
A. > 120 µM (not active)

Q. Fill in the blank: the reported EC50 of O=C1/C(=C/c2ccc(N3CCOCC3)o2)S/C(=N\c2ccccc2)N1CCc1c[nH]c2ccccc12 is ____.
A. > 120 µM (not active)

Q. Give its EC50 value. Item: Cc1ccc(NC2c3ncccc3C(=O)N2c2ccccc2C)cc1C (stereo unspecified)
A. 9.38 µM (active)

Q. Please give the measured EC50 for this molecule: CC(C)(C)n1nc2c(c1NC(=O)c1cc([N+](=O)[O-])ccc1Cl)CS(=O)(=O)C2
A. > 120 µM (not active)

Q. Which EC50 value is on record for CC(Cc1ccccc1)/[N+]([O-])=C\c1ccc(C(F)(F)F)cc1 (stereo unspecified) ?
A. 4.53 µM (active)
